Target: Kv2.1 (Homo sapiens)
Sequence (Q14721 1-858): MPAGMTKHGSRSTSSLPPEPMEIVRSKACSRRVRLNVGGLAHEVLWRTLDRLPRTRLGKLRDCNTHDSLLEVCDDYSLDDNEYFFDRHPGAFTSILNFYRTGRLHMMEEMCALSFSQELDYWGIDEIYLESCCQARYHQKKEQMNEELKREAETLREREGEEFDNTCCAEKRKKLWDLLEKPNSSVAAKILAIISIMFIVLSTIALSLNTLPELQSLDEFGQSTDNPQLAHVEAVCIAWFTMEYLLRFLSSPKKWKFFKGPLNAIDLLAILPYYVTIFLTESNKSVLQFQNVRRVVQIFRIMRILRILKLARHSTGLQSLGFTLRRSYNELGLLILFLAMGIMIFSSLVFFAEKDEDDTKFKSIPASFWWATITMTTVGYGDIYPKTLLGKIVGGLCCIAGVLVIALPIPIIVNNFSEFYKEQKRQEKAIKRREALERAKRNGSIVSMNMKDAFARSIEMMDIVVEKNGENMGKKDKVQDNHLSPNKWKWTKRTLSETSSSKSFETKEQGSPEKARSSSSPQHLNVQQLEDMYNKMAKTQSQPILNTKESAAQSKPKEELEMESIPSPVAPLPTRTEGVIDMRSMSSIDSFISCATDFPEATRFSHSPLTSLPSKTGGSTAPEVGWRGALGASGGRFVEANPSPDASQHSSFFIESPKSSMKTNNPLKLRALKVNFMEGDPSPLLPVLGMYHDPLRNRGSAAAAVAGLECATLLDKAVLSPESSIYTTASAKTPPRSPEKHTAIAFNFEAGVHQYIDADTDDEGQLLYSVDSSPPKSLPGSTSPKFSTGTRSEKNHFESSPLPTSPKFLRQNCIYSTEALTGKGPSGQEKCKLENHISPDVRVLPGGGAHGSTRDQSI
Experiment: TEVC in Xenopus oocytes, Kv2.1 wild type
Settings: read-out: IC50 for Kv2.1
propertyName: IC50

Measured IC50, "O=c1ccc2c(OCCCCc3ccccc3)c3ccoc3cc2o1" : ~3.9 µM
